The origin of these recorded values is ChEMBL document CHEMBL3217442.

system: Salmonella typhimurium; experiment: Antibacterial activity against Salmonella typhimurium LT2 expressing LigA after 20 hrs; assay type: functional, Salmonella enterica subsp. enterica serovar Typhimurium; details: Salmonella enterica, LT2, 20 h
Below: a set of entries, each annotated with reported MIC.
Give the value in µg/mL but do not write µg/mL after it.

C=CCOc1ccccc1C(=O)NO; 20
C=CCOc1ccc(C(=O)NO)c(OCC=C)c1; 800
O=C(NO)c1ccccc1OCC(O)Cn1cc(-c2ccccc2)nn1 (centres undefined); 30

Q: Report MIC for C#CCOc1ccc(OCC=C)c(C(=O)NO)c1
A: 600
